- System: MOLT-4 leukemia
- assay.notes: NCI tumour cell line growth inhibition, 48 h; in the data active = GI50 below about 0.43 µM; inactive = the rest
Classes used: Y = active, N = inactive

{"given.smiles": "CC(=O)NNC(=O)c1nn(-c2ccc(Cl)cc2)cc1OC(C)=O", "assigned.class": "N"}
{"given.smiles": "Cc1ccc(C(=O)Nc2ccc(CN3CCN(C)CC3)c(C(F)(F)F)c2)cc1C#Cc1cncc2ncccc12", "assigned.class": "Y"}
{"given.smiles": "NCCCn1c2c(c3ccc([N+](=O)[O-])cc3c1=O)C(=O)c1cc3c(cc1-2)OCO3", "assigned.class": "Y"}
{"given.smiles": "COc1cc2c(cc1OCCCCC(=O)Nc1ccc(-c3nc4ccccc4s3)cc1)N=C[C@@H]1CCCN1C2=O", "assigned.class": "N"}

---

- Test system: UACC-257 melanoma
- assay.notes: NCI tumour cell line growth inhibition, 48 h

{"compound": "c1ccc(C(=NNc2nc3ccccc3[nH]2)c2ccccn2)nc1", "study.target": "UACC-257 melanoma", "TGI": "1.92 µM"}
{"compound": "O=C1CC(c2ccccc2)Cc2nc3ccc(Cl)cc3cc21 (configuration not stated)", "study.target": "UACC-257 melanoma", "TGI": "> 85.4 µM"}
{"compound": "CC12C=CC(C)(O1)C1C2c2ccccc2S1(=O)=O (configuration not stated)", "study.target": "UACC-257 melanoma", "TGI": "> 100 µM"}
{"compound": "COc1ccc(CNc2nc3ccccc3nc2-c2cccs2)cc1OC", "study.target": "UACC-257 melanoma", "TGI": "> 100 µM"}
{"compound": "Oc1c(I)cc(I)cc1CNCCCN(Cc1ccccn1)Cc1ccccn1", "study.target": "UACC-257 melanoma", "TGI": "3.39 µM"}
{"compound": "COc1ccc(C2C(C(=O)O)=C(COC(C)=O)Oc3cc4c(cc32)OCO4)cc1 (configuration not stated)", "study.target": "UACC-257 melanoma", "TGI": "> 100 µM"}
{"compound": "O=c1c2cc(-c3ccccc3)cnc2sn1-c1ccc([N+](=O)[O-])cc1", "study.target": "UACC-257 melanoma", "TGI": "> 100 µM"}
{"compound": "Cc1ccnc(NC(=S)Nc2ccccc2Cl)c1", "study.target": "UACC-257 melanoma", "TGI": "> 100 µM"}
{"compound": "COc1cc2c(cc1OCCCCCCNC(=O)c1cc3ccccc3[nH]1)N=CC1CCCN1C2=O (configuration not stated)", "study.target": "UACC-257 melanoma", "TGI": "51.2 µM"}
{"compound": "CC(=O)c1ccc2c(c1)oc(=O)n2CCN(C)C", "study.target": "UACC-257 melanoma", "TGI": "> 100 µM"}
{"compound": "O=C1Nc2ccccc2C12CC(c1ccccc1)=NN2 (configuration not stated)", "study.target": "UACC-257 melanoma", "TGI": "> 100 µM"}
{"compound": "COC(=O)c1[nH]nc(-c2ccccc2)c1N1CCCCC1", "study.target": "UACC-257 melanoma", "TGI": "> 100 µM"}

---

- Test system: COLO 205 colon
- assay.notes: NCI tumour cell line growth inhibition, 48 h
Where a SMILES comes first, the peptide text is derived from it. [ ]: non-standard residue; d: D form. The star is where a group is joined. NMeF = CN[CH](Cc1ccccc1)C(=O)O; NMeV = CN[CH](C(=O)O)C(C)C; Boc = CC(C)(C)OC(=O)*; OBn = c1ccc(CO*)cc1
Below, each of the compounds is paired with its reported TGI value.

{"compound": "Cc1ccc([N+](=O)[O-])cc1S(=O)(=O)Nc1ccc(C2=NN(c3ccc([N+](=O)[O-])cc3[N+](=O)[O-])C(c3ccccc3O)C2)cc1 (stereo not given)", "TGI": "> 100 µM"}
{"compound": "O=C1Nc2ccccc2C12CC(c1ccccc1)=NN2 (stereo not given)", "TGI": "25.9 µM"}
{"compound": "CC(C)C(NC(=O)OC(C)(C)C)C(=O)N(C)C(Cc1ccccc1)C(=O)N(C)C(C(=O)N(C)C(C(=O)OCc1ccccc1)C(C)C)C(C)C (stereo not given) (Boc-V[NMeF][NMeV][NMeV]-OBn; configuration not given here)", "TGI": "> 100 µM"}
{"compound": "CCC(=N\\NC(N)=S)/C(C)=N/O", "TGI": "> 100 µM"}
{"compound": "Oc1[nH]c2ccccc2c1N=NC(=S)N1CCCCCC1", "TGI": "6.2 µM"}
